biological target: Factor X, P00742
Sequence (P00742 whole entry, looked up): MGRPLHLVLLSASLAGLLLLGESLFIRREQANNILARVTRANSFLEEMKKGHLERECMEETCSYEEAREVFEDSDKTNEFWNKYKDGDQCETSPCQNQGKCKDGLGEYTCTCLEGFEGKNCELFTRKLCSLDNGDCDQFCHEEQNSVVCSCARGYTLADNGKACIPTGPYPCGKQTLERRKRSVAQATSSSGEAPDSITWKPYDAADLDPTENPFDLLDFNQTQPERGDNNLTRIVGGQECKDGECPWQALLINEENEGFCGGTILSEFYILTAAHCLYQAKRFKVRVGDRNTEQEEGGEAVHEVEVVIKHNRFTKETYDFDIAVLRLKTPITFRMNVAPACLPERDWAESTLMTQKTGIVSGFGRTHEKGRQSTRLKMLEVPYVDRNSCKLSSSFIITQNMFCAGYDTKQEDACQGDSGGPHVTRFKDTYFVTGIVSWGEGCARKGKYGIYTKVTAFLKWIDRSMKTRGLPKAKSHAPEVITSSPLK
# kcat listing for each entry below
Returns: string containing the numeric result and its unit.

Examples with their reported kcat follow.
FIXa-K228N/I251S/R318Y/R338E/R403E/E410N (protein) chain 1: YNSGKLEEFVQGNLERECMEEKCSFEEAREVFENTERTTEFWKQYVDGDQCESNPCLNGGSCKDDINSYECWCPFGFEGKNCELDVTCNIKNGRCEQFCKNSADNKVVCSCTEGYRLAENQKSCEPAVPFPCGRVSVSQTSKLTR chain 2: VVGGEDAKPGQFPWQVVLNGKVDAFCGGSIVNEKWIVTAAHCVETGVNITVVAGEHNIEETEHTEQKRNVSRIIPHHNYNAAINKYNHDIALLELDEPLVLNSYVTPICIADKEYTNIFLKFGSGYVSGWGRVFHKGYSALVLQYLRVPLVDRATCLESTKFTIYNNMFCAGFHEGGRDSCQGDSGGPHVTEVEGTSFLTGIISWGEECAMKGKYGIYTKVSEYVNWIKNKTKLT : 7.5 s⁻¹
FIXa-D104N/K106S/N260S/R318Y/R338E/R403E/E410N (protein) chain 1: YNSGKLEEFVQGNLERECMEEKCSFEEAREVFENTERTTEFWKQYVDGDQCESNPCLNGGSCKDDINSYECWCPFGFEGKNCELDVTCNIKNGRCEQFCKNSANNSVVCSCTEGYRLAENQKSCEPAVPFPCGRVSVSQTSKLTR chain 2: VVGGEDAKPGQFPWQVVLNGKVDAFCGGSIVNEKWIVTAAHCVETGVKITVVAGEHNIEETEHTEQKRNVIRIIPHHNYSAAINKYNHDIALLELDEPLVLNSYVTPICIADKEYTNIFLKFGSGYVSGWGRVFHKGYSALVLQYLRVPLVDRATCLESTKFTIYNNMFCAGFHEGGRDSCQGDSGGPHVTEVEGTSFLTGIISWGEECAMKGKYGIYTKVSEYVNWIKNKTKLT : 5.4 s⁻¹
FIXa-Y155F/K228N/K247N/N249S/R318Y/R338E/T343R/R403E/E410N (protein) chain 1: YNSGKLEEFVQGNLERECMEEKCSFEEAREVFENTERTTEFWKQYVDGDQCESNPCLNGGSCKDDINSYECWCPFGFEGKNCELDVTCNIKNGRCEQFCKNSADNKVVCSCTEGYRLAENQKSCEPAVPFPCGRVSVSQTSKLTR chain 2: VVGGEDAKPGQFPWQVVLNGKVDAFCGGSIVNEKWIVTAAHCVETGVNITVVAGEHNIEETEHTEQNRSVIRIIPHHNYNAAINKYNHDIALLELDEPLVLNSYVTPICIADKEYTNIFLKFGSGYVSGWGRVFHKGYSALVLQYLRVPLVDRATCLESTKFRIYNNMFCAGFHEGGRDSCQGDSGGPHVTEVEGTSFLTGIISWGEECAMKGKYGIYTKVSEYVNWIKNKTKLT : 9.4 s⁻¹

Specify kcat for FIXa-K228N/K247N/N249S/R318Y/R338E/R403E/E410N (protein) chain 1: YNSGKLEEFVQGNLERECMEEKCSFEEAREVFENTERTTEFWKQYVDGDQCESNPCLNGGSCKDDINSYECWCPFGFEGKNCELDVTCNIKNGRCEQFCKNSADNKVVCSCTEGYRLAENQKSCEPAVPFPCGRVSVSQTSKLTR chain 2: VVGGEDAKPGQFPWQVVLNGKVDAFCGGSIVNEKWIVTAAHCVETGVNITVVAGEHNIEETEHTEQNRSVIRIIPHHNYNAAINKYNHDIALLELDEPLVLNSYVTPICIADKEYTNIFLKFGSGYVSGWGRVFHKGYSALVLQYLRVPLVDRATCLESTKFTIYNNMFCAGFHEGGRDSCQGDSGGPHVTEVEGTSFLTGIISWGEECAMKGKYGIYTKVSEYVNWIKNKTKLT and stop.
6.1 s⁻¹
